# EXPERIMENT DESCRIPTION: self-splicing fitness, log relative to wild type (ln ratio); higher = more splicing; Tetrahymena group I intron in knt gene, E. coli kanamycin selection, DiMSum; sequences stand for … in CUCUCU…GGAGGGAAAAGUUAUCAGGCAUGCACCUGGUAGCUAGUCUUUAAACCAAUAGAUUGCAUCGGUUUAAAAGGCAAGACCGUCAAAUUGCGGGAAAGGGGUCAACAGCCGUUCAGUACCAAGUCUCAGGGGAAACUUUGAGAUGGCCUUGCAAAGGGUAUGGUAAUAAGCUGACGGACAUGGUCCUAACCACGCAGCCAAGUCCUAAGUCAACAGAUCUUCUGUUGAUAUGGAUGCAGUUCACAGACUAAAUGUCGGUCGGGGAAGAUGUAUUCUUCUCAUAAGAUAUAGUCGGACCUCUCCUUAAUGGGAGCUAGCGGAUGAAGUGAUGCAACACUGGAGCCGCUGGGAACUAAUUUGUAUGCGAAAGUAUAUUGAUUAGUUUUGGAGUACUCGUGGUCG;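 further: selection with 25 µg/mL kanamycin versus none on LB agar overnight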
# RECORDED CONDITIONS: 30 °C
READOUT LABEL: self-splicing fitness (ln)

A selection of reference data follows.
UUAAAGCAAUAUUACGAGUA: -1.08
CACCAGCAAUAUUACGCGUA: -0.717
GGUCAGCAAUAUUACGCGUU: -0.112
UCAUAGCAAUAUUACGGCAA: -2.25
GGGAAGCAAUAUUACGCAGA: -3.81
UACAAGCAAUAUUACGAAGA: -2.08

We next turn to a different sequence, shown below.
Returns the measured self-splicing fitness (ln) for the input sequence. Input: `ACGCAGCAAUAUUACGAACC` -1.99
